Quick list: self-cleavage kobs at 2500 uM GlcN6P per entry.
B1: glmS ribozyme (parent)
chain: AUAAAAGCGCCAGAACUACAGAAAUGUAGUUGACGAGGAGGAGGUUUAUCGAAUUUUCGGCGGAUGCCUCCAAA

Variants of: B1
Assay: self-cleavage kobs at 2500 uM GlcN6P; higher = faster cleavage; RNA array
Details: with glucosamine-6-phosphate
Variants at the floor of the assay were thinned out.
Just the number in s⁻¹, nothing appended.

Recorded self-cleavage kobs at 2500 uM GlcN6P, per entry:
>>> numeric_result("G37A G43U")
"4.23e-05"
>>> numeric_result("C16U A39U A48U")
"7.54e-05"
>>> numeric_result("C34G U69G")
"8.27e-05"
>>> numeric_result("U55A C61A C68A")
0.00152
>>> numeric_result("U30A C67U")
0.00118

Name the recorded self-cleavage kobs at 2500 uM GlcN6P of the item C16A G66U C68G in your answer.
6.82e-05

Name the recorded self-cleavage kobs at 2500 uM GlcN6P of the item A12U C16G G32A in your answer.
0.000137

Name the recorded self-cleavage kobs at 2500 uM GlcN6P of the item U31C U55C in your answer.
0.00284

Name the recorded self-cleavage kobs at 2500 uM GlcN6P of the item U46G G66C in your answer.
0.00594

Name the recorded self-cleavage kobs at 2500 uM GlcN6P of the item G29C U56A in your answer.
0.000439

Name the recorded self-cleavage kobs at 2500 uM GlcN6P of the item G32A U56C in your answer.
9.95e-05

Name the recorded self-cleavage kobs at 2500 uM GlcN6P of the item A14C U31C U65A C70A in your answer.
7.72e-05

Name the recorded self-cleavage kobs at 2500 uM GlcN6P of the item U31G U45A in your answer.
0.0105
